assay: Inhibition of Mycobacterium tuberculosis DprE1
Each entry below carries its recorded pIC50.

COMPOUND: CC(Nc1ccc2c(c1)OCCO2)C(=O)NC1CCCCC1 (configuration not stated)
QUALIFIER SYMBOL: =
pIC50: 4.4
//
COMPOUND: CC(Nc1ccc2c(c1)OCCO2)C(=O)Nc1ccc(-c2cccnc2)cc1 (configuration not stated)
QUALIFIER SYMBOL: <
pIC50: 4
//
COMPOUND: CC(Nc1ccc2c(c1)OCCO2)C(=O)Nc1ccc(Br)cn1 (configuration not stated)
QUALIFIER SYMBOL: =
pIC50: 5.2
//
COMPOUND: C[C@@H](Nc1ccc2c(c1)OCCO2)C(=O)Nc1ccc(Br)cc1
QUALIFIER SYMBOL: =
pIC50: 6.6
//
COMPOUND: CC(Nc1ccc2c(c1)NC(=O)CO2)C(=O)Nc1ccc(Br)cc1 (configuration not stated)
QUALIFIER SYMBOL: <
pIC50: 4
//
COMPOUND: CC(Nc1ccc2c(c1)OCCO2)C(=O)Nc1ccc2cn[nH]c2c1 (configuration not stated)
QUALIFIER SYMBOL: =
pIC50: 5.4
//
COMPOUND: O=C(CNc1ccc2c(c1)OCCO2)Nc1ccc(Br)cc1
QUALIFIER SYMBOL: =
pIC50: 6.7

* * *

assay: Inhibition of Mycobacterium tuberculosis DprE1

COMPOUND: CC(Nc1ccc2c(c1)OCCO2)C(=O)Nc1ccc(C(F)(F)F)cc1 (stereo unspecified)
QUALIFIER SYMBOL: =
pIC50: 6.9
--
COMPOUND: CC(Nc1ccc2c(c1)OCCO2)C(=O)Nc1ccc(Br)cc1 (racemic)
QUALIFIER SYMBOL: =
pIC50: 7.2
--
COMPOUND: CNC(=O)c1ccc(NC(=O)C(C)Nc2ccc3c(c2)OCCO3)cc1 (stereo unspecified)
QUALIFIER SYMBOL: <
pIC50: 4
--
COMPOUND: O=C1C(Cc2ccc3c(c2)OCCO3)CCN1c1ccc(Br)cc1 (stereo unspecified)
QUALIFIER SYMBOL: =
pIC50: 4.5
--
COMPOUND: Cc1ccc(NC(=O)C(C)Nc2ccc3c(c2)OCCO3)cc1 (stereo unspecified)
QUALIFIER SYMBOL: =
pIC50: 4.8
--
COMPOUND: CC(Nc1cnc2c(c1)OCCO2)C(=O)Nc1ccc(Br)cc1 (stereo unspecified)
QUALIFIER SYMBOL: =
pIC50: 5.7

* * *

Each entry below carries its recorded MIC.
tested on: Mycobacterium tuberculosis; assay: Antimycobacterial activity against Mycobacterium tuberculosis H37Rv; format: functional

COMPOUND: C[C@@H](Nc1ccc2c(c1)OCCO2)C(=O)Nc1ccc(Br)cc1
QUALIFIER SYMBOL: =
MIC / µM: 6.5

COMPOUND: CC(Nc1ccc2c(c1)OCCO2)C(=O)Nc1ccc(Br)cc1 (racemic)
QUALIFIER SYMBOL: =
MIC / µM: 7.8

COMPOUND: CC(Nc1ccc2c(c1)OCCO2)C(=O)Nc1ccc2cc[nH]c2c1 (stereo not drawn)
QUALIFIER SYMBOL: =
MIC / µM: 32

COMPOUND: O=C1C(Cc2ccc3c(c2)OCCO3)CCN1c1ccc(Br)cc1 (stereo not drawn)
QUALIFIER SYMBOL: >
MIC / µM: 125

COMPOUND: CC(Nc1ccc2c(c1)OCCO2)C(=O)Nc1ccc2cn[nH]c2c1 (stereo not drawn)
QUALIFIER SYMBOL: =
MIC / µM: 31

COMPOUND: CC(C)C(Nc1ccc2c(c1)OCCO2)C(=O)Nc1ccc(Br)cc1 (stereo not drawn)
QUALIFIER SYMBOL: >
MIC / µM: 125

COMPOUND: NNC(=O)c1ccncc1 [ISONIAZID]
QUALIFIER SYMBOL: =
MIC / µM: 1.8

COMPOUND: CC(Nc1ccc2c(c1)NCCC2)C(=O)Nc1ccc(Br)cc1 (stereo not drawn)
QUALIFIER SYMBOL: =
MIC / µM: 125

* * *

assay: Lipophilicity, log D of the compound at pH 7.4; assay type: physicochemical; details: buffer
Each entry below carries its recorded logD.
MEASURED PROPERTY: logD

MOLECULE: CC(Nc1ccc2c(c1)NCCO2)C(=O)Nc1ccc(Br)cc1 (stereo unspecified)
MEASURED PROPERTY: logD
QUANTITATIVE RESULT: 4.8

MOLECULE: C[C@H](Nc1ccc2c(c1)OCCO2)C(=O)Nc1ccc(Br)cc1
MEASURED PROPERTY: logD
QUANTITATIVE RESULT: 5.5

MOLECULE: O=C(CNc1ccc2c(c1)OCCO2)Nc1ccc(Br)cc1
MEASURED PROPERTY: logD
QUANTITATIVE RESULT: 5.1

MOLECULE: CC(Nc1ccc2c(c1)OCCO2)C(=O)Nc1ccc2cc[nH]c2c1 (stereo unspecified)
MEASURED PROPERTY: logD
QUANTITATIVE RESULT: 4

MOLECULE: CC(C)(Nc1ccc2c(c1)OCCO2)C(=O)Nc1ccc(Br)cc1
MEASURED PROPERTY: logD
QUANTITATIVE RESULT: 6.3

MOLECULE: CC(Nc1ccc2c(c1)OCCO2)C(=O)Nc1ccccc1 (stereo unspecified)
MEASURED PROPERTY: logD
QUANTITATIVE RESULT: 4.3

MOLECULE: O=C1C(Cc2ccc3c(c2)OCCO3)CCN1c1ccc(Br)cc1 (stereo unspecified)
MEASURED PROPERTY: logD
QUANTITATIVE RESULT: 6

MOLECULE: Cc1ccc(NC(=O)C(C)Nc2ccc3c(c2)OCCO3)cc1 (stereo unspecified)
MEASURED PROPERTY: logD
QUANTITATIVE RESULT: 4.8

MOLECULE: CC(Nc1ccc2c(c1)OCCO2)C(=O)Nc1ccc(Br)cc1 (racemic)
MEASURED PROPERTY: logD
QUANTITATIVE RESULT: 5.5

MOLECULE: CC(Nc1ccc2c(c1)OCCO2)C(=O)Nc1ccc(C#N)cc1 (stereo unspecified)
MEASURED PROPERTY: logD
QUANTITATIVE RESULT: 4.2

MOLECULE: CC(Nc1ccc2c(c1)OCCCO2)C(=O)Nc1ccc(Br)cc1 (stereo unspecified)
MEASURED PROPERTY: logD
QUANTITATIVE RESULT: 5.7

* * *

Each entry below carries its recorded MIC.
test system: Mycobacterium tuberculosis; assay: Antimycobacterial activity against Mycobacterium tuberculosis H37Rv; assay type: functional

COMPOUND: CC(Nc1ccc2c(c1)OCCO2)C(=O)Nc1nc2ccccc2[nH]1 (centres undefined)
SUBJECT OF TEST: Mycobacterium tuberculosis
QUALIFIER SYMBOL: =
MIC (µM): 62

COMPOUND: CC(Nc1ccc2c(c1)CCCC2)C(=O)Nc1ccc(Br)cc1 (centres undefined)
SUBJECT OF TEST: Mycobacterium tuberculosis
QUALIFIER SYMBOL: =
MIC (µM): 16

COMPOUND: CC(Nc1ccc2c(c1)OCCO2)C(=O)NC1CCCCC1 (centres undefined)
SUBJECT OF TEST: Mycobacterium tuberculosis
QUALIFIER SYMBOL: >
MIC (µM): 125

COMPOUND: C[C@H](Nc1ccc2c(c1)OCCO2)C(=O)Nc1ccc(Br)cc1
SUBJECT OF TEST: Mycobacterium tuberculosis
QUALIFIER SYMBOL: =
MIC (µM): 13

COMPOUND: COc1ccc(NC(C)C(=O)Nc2ccc(Br)cc2)cc1OC (centres undefined)
SUBJECT OF TEST: Mycobacterium tuberculosis
QUALIFIER SYMBOL: =
MIC (µM): 40

COMPOUND: CC(Nc1ccc2c(c1)OCCCO2)C(=O)Nc1ccc(Br)cc1 (centres undefined)
SUBJECT OF TEST: Mycobacterium tuberculosis
QUALIFIER SYMBOL: =
MIC (µM): 4

COMPOUND: CC(C(=O)Nc1ccc(Br)cc1)N(C)c1ccc2c(c1)OCCO2 (centres undefined)
SUBJECT OF TEST: Mycobacterium tuberculosis
QUALIFIER SYMBOL: =
MIC (µM): 2.5

COMPOUND: CC(Nc1ccc(Br)cc1)C(=O)Nc1ccc2c(c1)OCCO2 (centres undefined)
SUBJECT OF TEST: Mycobacterium tuberculosis
QUALIFIER SYMBOL: =
MIC (µM): 125

COMPOUND: Cc1ccc(NC(=O)C(C)Nc2ccc3c(c2)OCCO3)cc1 (centres undefined)
SUBJECT OF TEST: Mycobacterium tuberculosis
QUALIFIER SYMBOL: =
MIC (µM): 125

COMPOUND: CC(Nc1cnc2c(c1)OCCO2)C(=O)Nc1ccc(Br)cc1 (centres undefined)
SUBJECT OF TEST: Mycobacterium tuberculosis
QUALIFIER SYMBOL: =
MIC (µM): 62

COMPOUND: CC(Nc1ccc2c(c1)OCCO2)C(=O)N(C)C (centres undefined)
SUBJECT OF TEST: Mycobacterium tuberculosis
QUALIFIER SYMBOL: >
MIC (µM): 125

COMPOUND: CC(Oc1ccc2c(c1)OCCO2)C(=O)Nc1ccc(Br)cc1 (centres undefined)
SUBJECT OF TEST: Mycobacterium tuberculosis
QUALIFIER SYMBOL: =
MIC (µM): 12

COMPOUND: CC(Nc1ccc2c(c1)OCCO2)C(=O)Nc1ccccc1 (centres undefined)
SUBJECT OF TEST: Mycobacterium tuberculosis
QUALIFIER SYMBOL: >
MIC (µM): 125

COMPOUND: CC(Nc1ccc2c(c1)OCCO2)C(=O)Nc1ccc(C#N)cc1 (centres undefined)
SUBJECT OF TEST: Mycobacterium tuberculosis
QUALIFIER SYMBOL: =
MIC (µM): 31

COMPOUND: CC(Nc1ccc2c(c1)OCCO2)C(=O)Nc1ccc(Cl)cc1 (centres undefined)
SUBJECT OF TEST: Mycobacterium tuberculosis
QUALIFIER SYMBOL: =
MIC (µM): 8

COMPOUND: CC(Nc1ccc2c(c1)NCCO2)C(=O)Nc1ccc(Br)cc1 (centres undefined)
SUBJECT OF TEST: Mycobacterium tuberculosis
QUALIFIER SYMBOL: >
MIC (µM): 125

COMPOUND: CC(Cc1ccc2c(c1)OCCO2)C(=O)Nc1ccc(Br)cc1 (centres undefined)
SUBJECT OF TEST: Mycobacterium tuberculosis
QUALIFIER SYMBOL: =
MIC (µM): 110

COMPOUND: CC(C)(Nc1ccc2c(c1)OCCO2)C(=O)Nc1ccc(Br)cc1
SUBJECT OF TEST: Mycobacterium tuberculosis
QUALIFIER SYMBOL: =
MIC (µM): 4

COMPOUND: CC(Nc1ccc2c(c1)OCCO2)C(=O)Nc1ccc(Br)cn1 (centres undefined)
SUBJECT OF TEST: Mycobacterium tuberculosis
QUALIFIER SYMBOL: =
MIC (µM): 80

COMPOUND: O=C(CNc1ccc2c(c1)OCCO2)Nc1ccc(Br)cc1
SUBJECT OF TEST: Mycobacterium tuberculosis
QUALIFIER SYMBOL: =
MIC (µM): 16

COMPOUND: CNC(=O)C(C)Nc1ccc2c(c1)OCCO2 (centres undefined)
SUBJECT OF TEST: Mycobacterium tuberculosis
QUALIFIER SYMBOL: >
MIC (µM): 125

COMPOUND: CC(Nc1ccc2c(c1)OCCO2)C(=O)Nc1ccc(Br)nc1 (centres undefined)
SUBJECT OF TEST: Mycobacterium tuberculosis
QUALIFIER SYMBOL: =
MIC (µM): 32

COMPOUND: CCC(Nc1ccc2c(c1)OCCO2)C(=O)Nc1ccc(Br)cc1 (centres undefined)
SUBJECT OF TEST: Mycobacterium tuberculosis
QUALIFIER SYMBOL: =
MIC (µM): 62

COMPOUND: O=C1C(Cc2ccc3c(c2)OCCO3)CCCN1c1ccc(Br)cc1 (centres undefined)
SUBJECT OF TEST: Mycobacterium tuberculosis
QUALIFIER SYMBOL: =
MIC (µM): 110
